Target: Anti-CD28 Fab (SEQ ID NOs: 696, 697) (biotinylated (site not stated))
Sequence (VH, as listed by the source, chain 1 of 2): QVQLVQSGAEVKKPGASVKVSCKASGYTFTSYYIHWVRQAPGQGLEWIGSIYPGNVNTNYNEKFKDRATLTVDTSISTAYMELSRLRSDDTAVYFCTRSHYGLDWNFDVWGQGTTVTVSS
Sequence (VL, as listed by the source, chain 2 of 2): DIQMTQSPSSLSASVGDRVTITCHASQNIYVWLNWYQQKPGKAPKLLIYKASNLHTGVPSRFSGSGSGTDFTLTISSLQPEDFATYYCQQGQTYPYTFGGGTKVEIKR
Assay: phage binding ELISA; Fab-coated wells pre-incubated with CD28 antigen as competitor, then clonal phage, anti-M13 HRP detection
Field: Anti-CD28 Fab signal in the presence of CD28 (phage binding ELISA). Provide a value for each of the binders that follow.
Numbers only.

Please review the entries below; each comes with its answer.
>>> reading("YCDGHLPEYMHKCL (tested as crude phage supernatant) [Phage-647]")
0.11
>>> reading("YCDGHMPEYMLKCL (tested as crude phage supernatant) [Phage-649]")
0.09
>>> reading("YCDGHLEEYMAKCL (tested as crude phage supernatant) [Phage-648]")
0.09
>>> reading("YCMGHSEEYMQKCL (tested as crude phage supernatant) [Phage-646]")
0.07

Consider now this further binder.
Problem: Let me know recorded Anti-CD28 Fab signal in the presence of CD28 (phage binding ELISA) for YCAGHLPQYMEKCM (tested as crude phage supernatant) [Phage-656] , thanks.
Solution: 0.08
